# assay: Metabolic stability in rat assessed as clearance at 3 mg/kg, iv
# Format: ADME, organism-based
# assay-context: in vivo
measurement-type: clearance

Input line: # lookup: clearance of `CC1(C)NC(=O)N(C[C@@H](COc2ccc(-c3ccc(OC(F)(F)F)cc3)cc2)N(O)C=O)C1=O`
Output line: 2 mL/min/kg

###

# assay-target: 72 kDa type IV collagenase (Homo sapiens)
# Sequence (P08253 whole entry): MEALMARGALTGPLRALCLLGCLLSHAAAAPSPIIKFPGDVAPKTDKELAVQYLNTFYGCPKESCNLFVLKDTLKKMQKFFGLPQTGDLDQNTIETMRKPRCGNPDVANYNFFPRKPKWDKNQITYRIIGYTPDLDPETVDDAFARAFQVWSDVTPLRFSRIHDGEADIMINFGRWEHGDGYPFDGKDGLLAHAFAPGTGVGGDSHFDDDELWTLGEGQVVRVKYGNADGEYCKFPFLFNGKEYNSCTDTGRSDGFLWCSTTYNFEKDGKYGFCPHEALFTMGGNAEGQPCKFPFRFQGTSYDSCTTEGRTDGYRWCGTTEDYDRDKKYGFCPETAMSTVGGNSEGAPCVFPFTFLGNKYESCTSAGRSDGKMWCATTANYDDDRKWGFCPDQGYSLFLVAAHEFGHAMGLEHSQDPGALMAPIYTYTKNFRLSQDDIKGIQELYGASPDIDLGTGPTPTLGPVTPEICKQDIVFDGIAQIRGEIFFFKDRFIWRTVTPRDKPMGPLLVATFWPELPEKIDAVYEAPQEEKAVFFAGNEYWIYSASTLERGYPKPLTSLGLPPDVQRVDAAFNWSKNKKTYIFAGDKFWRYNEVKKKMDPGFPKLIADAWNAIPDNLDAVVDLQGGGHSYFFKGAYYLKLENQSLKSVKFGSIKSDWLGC
# assay: Inhibition of MMP-2 (unknown origin) using Mca-Pro-Leu-Gly-Leu-Dpa-Ala-Arg-NH2 as substrate by fluorimetric assay
measurement-type: IC50 (µM)
Note: unit µM is implicit; provide only the numeric part.

>>> measurement("NCCCCC(NS(=O)(=O)c1ccc(-c2ccccc2)cc1)C(=O)O (stereo not drawn)")
0.9
>>> measurement("O=C(NCCCCC(NS(=O)(=O)c1ccc(-c2ccc(Cl)cc2)cc1)C(=O)O)OCc1ccccc1 (stereo not drawn)")
0.005

Here's the next entry for you.
Input line: Reported IC50 for O=C(NCCCCC(NS(=O)(=O)c1ccc(-c2ccccc2)cc1)C(=O)O)OCc1ccccc1 (stereo not drawn) : what is it?
Output line: 0.05
